Molecular target: T1, p_H-CD81 (human)
T1 construct: human CD81, head domain of the large extracellular loop, residues 167-188; Immobilised on a CM-5 chip by amine coupling; also called human CD81 peptide; receptor peptide from the head domain region of human CD81; source: synthetic peptide, bought: GeneMark (GMbiolab Co., Ltd., Taiwan)
T1 peptide: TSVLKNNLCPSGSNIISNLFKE
Assay: SPR; Biacore T200; p_H-CD81 or p_R-CD81 (about 1000 RU) immobilised on a CM-5 chip by amine coupling; E2 peptides flowed over at several concentrations, 30 µL/min for 2 min; equilibrium binding curves fitted with a monovalent binding model
Conditions: both partners purified
OUTCOME_MEASURE: Kd

>>> value_reported("INSTALNCNESLNTGWLAGLFYQ (hepatitis C virus envelope glycoprotein E2, residues 422-444 of the polyprotein; also called E2-site1 peptide; E2-s1; source: synthetic peptide, bought: GeneMark (GMbiolab Co., Ltd., Taiwan)) [p_E2-site1]")
"7.96 µM"

Field: next binder
Entry RSGAPTYSWGANDTDVF (hepatitis C virus envelope glycoprotein E2, residues 521-537 of the polyprotein; also called E2-site2 peptide; E2-s2; source: synthetic peptide, bought: GeneMark (GMbiolab Co., Ltd., Taiwan)) [p_E2-site2] , Kd reported as 1.07 µM
